- Assay info: chemical genetic growth profiling, strain panel (AID 1159580);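 further: tested at 20 µM; growth read once vehicle control cultures reached saturation at 30 °C; 1 = growth at the plate median or of vehicle wells; lower values mean less growth of the strain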
- Experimental context: S. cerevisiae deletion strains, growth OD, locus YNL209W, strain ssb2, stronger effect = lower value
Hit rate of the full screen: of about 5,500 compounds, about 2,000 (36%) were called active. About 18% were inconclusive and are not listed. The list shows a part of the results.
Property label: normalized growth

Compound	Property label	Assay value
CC(=O)OCC(=O)[C@@]1(O)CCC2C3CC[C@@H]4C[C@H](O)CC[C@]4(C)C3C(=O)C[C@@]21C (stereo partly specified)	normalized growth	1.02 (inactive)
CC(=O)[C@H]1CCC2C3CC=C4C[C@@H](O)CC[C@]4(C)C3CC[C@@]21C (stereo partly specified)	normalized growth	0.983 (inactive)
COc1cc2cc[n+]3cc4c(OC)c(OC)ccc4cc3c2cc1OC	normalized growth	0.982 (inactive)
O=C(/C=C/c1ccccc1)c1ccc(O)cc1	normalized growth	0.593 (active)
O=C1CN2Cc3c(ccc(Cl)c3Cl)N=C2N1	normalized growth	0.987 (inactive)
O=c1cc(-c2ccc(O)c(O)c2)oc2ccccc12	normalized growth	0.932 (inactive)
O=c1cc(-c2ccc(O)cc2)oc2ccc(O)cc12	normalized growth	0.975 (inactive)
CC[C@]12C=CCN3CC[C@@]4(c5ccc(OC)cc5N(C)C4[C@@](O)(C(=O)OC)[C@@H]1OC(C)=O)[C@@H]32 (stereo partly specified)	normalized growth	1.01 (inactive)

Field normalized growth (entry CC(=O)OCC(=O)[C@H]1CCC2C3CC=C4C[C@@H](O)CC[C@]4(C)C3CC[C@@]21C (stereo partly specified) ) reads 1.08 [resistant] (active)

normalized growth recorded for this compound, COc1c2c(cc3c1OCO3)CC[N+](C)=C2 , is 0.992 (inactive)

normalized growth recorded for this compound, COc1cc2c(cc1OC)-c1cc3ccc(OC)c(OC)c3c[n+]1CC2 , is 0.977 (inactive)

----------
- Assay info: chemical genetic growth profiling, strain panel (AID 1159580);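 further: tested at 20 µM; growth read once vehicle control cultures reached saturation at 30 °C; 1 = growth at the plate median or of vehicle wells; lower values mean less growth of the strain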
- Experimental context: S. cerevisiae deletion strains, growth OD, locus YHR079C, strain IRE1, stronger effect = lower value
In all, about 5,500 compounds went through this assay and about 2,000 (36%) were called active. Roughly 18% stayed inconclusive and do not appear here. The list shows a part of the results.
Property label: normalized growth

In the examples that follow, each entry is paired with its recorded normalized growth.
Compound	Assay value
COc1cc([C@@H]2c3cc4c(cc3C(O[C@@H]3O[C@@H]5CO[C@@H](c6cccs6)OC5[C@H](O)[C@H]3O)C3COC(=O)[C@@H]32)OCO4)cc(OC)c1O (some centres not stated)	1.01 (inactive)
CC(=O)O[C@H]1C[C@H](O[C@H]2[C@@H](O)C[C@H](O[C@H]3[C@@H](O)C[C@H](O[C@H]4CC[C@@]5(C)C(CCC6C5C[C@@H](O)[C@]5(C)[C@@H](C7=CC(=O)OC7)CC[C@]65O)C4)O[C@@H]3C)O[C@@H]2C)O[C@H](C)[C@H]1O[C@@H]1O[C@H](CO)[C@@H](O)[C@H](O)[C@H]1O (some centres not stated)	0.966 (inactive)
CCCCCCc1ccc(O)cc1O	0.862 (inactive)
COC(=O)C1=C(C)NC(C)=C(C(=O)OCC(C)C)C1c1ccccc1[N+](=O)[O-] (configuration not stated)	0.385 (active)

Reported normalized growth for NCCc1c[nH]c2ccc(O)cc12 was 1.02 (inactive)

Entry COCCOC(=O)C1=C(C)NC(C)=C(C(=O)OC(C)C)C1c1cccc([N+](=O)[O-])c1 (configuration not stated) ; normalized growth = 0.95 (inactive)

normalized growth reading for CCCCC1C(=O)N(c2ccccc2)N(c2ccccc2)C1=O : 0.917 (inactive)
